The reported measurements were obtained from patent US20260152573A1.

target: T1, cynomolgus monkey serum albumin (cynomolgus monkey, UniProt A2V9Z4 25-608); experiment: SPR Biacore 8K+ SCK, albumin on chip, pH 7.4
T1 construct: Immobilised on SPR chips; also called cynoSA; cynomolgus albumin
readout type: Kd (nM)
// note: answer is a bare numeric in nM

[
  {
    "binder": "Alb23 V64A (VHH, VHH alone) VHH: EVQLLESGGGLVQPGGSLRLSCAASGFTFRSFGMSWVRQAPGKGPEWVSSISGSGSDTLYADSAKGRFTISRDNSKNTLYLQMNSLRPEDTAVYYCTIGGSLSRSSQGTLVTVSS",
    "unit string": "nM",
    "Kd": 4.11
  }
]

Continue with the next binder.
## Input Dear colleague, I am looking for the recorded Kd of the following binder: Alb23 R104A (VHH, VHH alone) VHH: EVQLLESGGGLVQPGGSLRLSCAASGFTFRSFGMSWVRQAPGKGPEWVSSISGSGSDTLYADSVKGRFTISRDNSKNTLYLQMNSLRPEDTAVYYCTIGGSLSASSQGTLVTVSS
## Output 4.92
